Test system: histone H1 (glycation by ADP-ribose)
Experiment: AGE-fluorescence screening of glycation inhibitors, histone H1 + ADP-ribose, 96 well microtiter plates
Type: biochemical, calf
Details: compound 5 mM; 5 days incubation
EXPERIMENTAL_ENDPOINT: AGE-fluorescence (day 5)

Asked: Query (molecule): O=C1CC(=O)NC(=S)N1 [2-Thiobarbituric acid] ; field requested: AGE-fluorescence (day 5)
Given back: 5.5 (0.4)

Asked: Consider the molecule NC(=O)C1=CN([C@@H]2O[C@H](COP(=O)(O)OP(=O)(O)OC[C@H]3O[C@@H](n4cnc5c(N)ncnc54)[C@H](O)[C@@H]3O)[C@@H](O)[C@H]2O)C=CC1 [NADH] and give its measured AGE-fluorescence (day 5).
Given back: 31 (0.0)

Asked: Name the reported AGE-fluorescence (day 5) value associated with the molecule NCCS [Cysteamine]
Given back: 9.0 (0.7)

Asked: Form field: reported AGE-fluorescence (day 5) of CC(C)(S)[C@@H](N)C(=O)O [D-Penicillamine, reference compound]
Given back: 2.9 (0.3)
